target: T1, HIV-1 Tat-derived peptide RKKRRQRRRPPQGS (Human immunodeficiency virus 1); assay: EMSA; 17.8% active RNA; conditions: protein: synthetic; tags: synthetic peptide, American Peptide Co; HIV LAI isolate; label: 5'-32P; linker-bridged hairpin with UCU bulge
T1 chain: RKKRRQRRRPPQGS
value_kind: Kd (nM)
Reply numerically in nM, unit not repeated.

Measured Kd of GGAGAUCUGAGCGCUCUCUCC (ssRNA, two coupled linkers C replace 6-nt loop between the two strands) [TAR conjugate 5CC] : 0.43
